meta.source: patent US5707966A

TARGET UNDER TEST: t-PA (Homo sapiens, UniProt P00750)
Construct: purchased American Diagnostica, Greenwich, Conn
Sequence (P00750 36-562): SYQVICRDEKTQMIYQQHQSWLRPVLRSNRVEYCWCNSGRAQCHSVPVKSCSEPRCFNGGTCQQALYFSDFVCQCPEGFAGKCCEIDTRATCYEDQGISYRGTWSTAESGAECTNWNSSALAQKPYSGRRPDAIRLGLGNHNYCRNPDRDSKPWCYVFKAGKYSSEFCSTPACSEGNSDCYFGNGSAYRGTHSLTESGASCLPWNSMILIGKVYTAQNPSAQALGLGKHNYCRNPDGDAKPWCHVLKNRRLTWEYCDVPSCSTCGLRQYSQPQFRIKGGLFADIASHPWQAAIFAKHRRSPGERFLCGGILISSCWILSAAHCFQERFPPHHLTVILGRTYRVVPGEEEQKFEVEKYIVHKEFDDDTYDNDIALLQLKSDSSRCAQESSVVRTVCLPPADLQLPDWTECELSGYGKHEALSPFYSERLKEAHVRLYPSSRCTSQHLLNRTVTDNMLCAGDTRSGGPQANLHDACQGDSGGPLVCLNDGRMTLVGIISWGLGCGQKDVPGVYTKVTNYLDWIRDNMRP
ASSAY REMARKS: Kass with t-PA, chromogenic substrate
Format: biochemical
CONDITION SET: substrate H-D-Ile-Pro-Arg-p-nitroanilide
Counter-ions that a name gives are not always drawn.

COMPOUND	Kass t-PA
CCS(=O)(=O)N[C@@H](C(=O)N1[C@H](C(=O)NCc2ccc(C(=N)N)cc2)C[C@@H]2CCCC[C@@H]21)c1ccccc1 (relative stereo)	0.04 × 10^6 (L/mole)
N=C(N)c1ccc(CNC(=O)[C@@H]2CCCN2C(=O)[C@@H](CC2CCCCC2)NCC(=O)O)cc1	0.05 × 10^6 (L/mole)
N=C(N)NCCCCCNC(=O)[C@@H]1CCCN1C(=O)[C@H](N)Cc1ccccc1 [Example 6, D-Phe-Pro-NH(CH2)5 NHC(NH)NH2.HCl]	< 0.001 × 10^6 (L/mole)
CCS(=O)(=O)N[C@H](Cc1ccccc1)C(=O)N1CCC[C@H]1C(=O)NCCCCNC(=N)N [Example 1, EtSO2 -D-Phe-Pro-Agm.HCl]	0.082 × 10^6 (L/mole)
CCS(=O)(=O)N[C@H](Cc1ccccc1)C(=O)N1CCC[C@H]1C(=O)NCc1cccc(NC(=N)N)c1	< 0.001 × 10^6 (L/mole)
N=C(N)NCCCCNC(=O)[C@@H]1CCCN1C(=O)[C@@H]1NCC[C@H]2CCCC[C@H]21 [Example 61, trihydrochloride]	0.008 × 10^6 (L/mole)

====

TARGET UNDER TEST: Human Thrombin (Homo sapiens)
ASSAY REMARKS: Inhibition of amidase activity of thrombin (Kass)
Format: biochemical
CONDITION SET: mean over a range of concentrations; […]
Structures can show the parent of a compound that is named as a salt.

COMPOUND	Kass Human Thrombin
CCS(=O)(=O)N[C@H](Cc1ccccc1)C(=O)N1CCC[C@H]1C(=O)NCc1cccc(C(=N)N)c1	0.78 × 10^6 (L/mole)
NCC1CCC(CNC(=O)[C@@H]2CCCN2C(=O)[C@@H](CC2CCCCC2)NCC(=O)O)CC1 (stereo partly shown)	2.0 × 10^6 (L/mole)
Nc1ccc(CNC(=O)[C@@H]2CCCN2C(=O)[C@H](N)Cc2ccccc2)cc1 [Example 13, D-Phe-Pro-p-NHCH2 C6 H4 NH2.HCl]	0.49 × 10^6 (L/mole)
CCC(CC)C(=O)N[C@@H](CCC(=O)O)C(=O)N1CCC[C@H]1C(=O)NCc1ccc(C(=N)N)cc1	0.61 × 10^6 (L/mole)
CS(=O)(=O)CC(=O)N[C@H](CC1CCCCC1)C(=O)N1CCC[C@H]1C(=O)NCc1ccc(C(=N)N)cc1	130 × 10^6 (L/mole)
N=C(N)Nc1ccc(CCNC(=O)[C@@H]2CCCN2C(=O)[C@@H]2NCC[C@@H]3CCCC[C@@H]32)cc1	0.12 × 10^6 (L/mole)
NCc1cccc(CNC(=O)[C@@H]2CCCN2C(=O)[C@H](N)Cc2ccccc2)c1 [Example 11, D-Phe-Pro-m-NHCH2 C6 H4 CH2 NH2.HCl]	0.064 × 10^6 (L/mole)

====

TARGET UNDER TEST: Bovine trypsin (Bos taurus, UniProt P00760)
Construct: Bovine trypsin is purchased; purchased Worthington Biochemicals, Freehold, N.J
Sequence (P00760 24-246): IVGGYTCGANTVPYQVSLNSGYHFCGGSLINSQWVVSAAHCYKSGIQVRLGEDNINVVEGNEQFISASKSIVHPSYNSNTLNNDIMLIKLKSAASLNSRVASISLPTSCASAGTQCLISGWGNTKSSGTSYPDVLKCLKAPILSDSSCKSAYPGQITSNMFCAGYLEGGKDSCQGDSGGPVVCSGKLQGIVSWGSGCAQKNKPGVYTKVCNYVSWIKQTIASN
ASSAY REMARKS: Kass with trypsin, chromogenic substrate
Assay type: biochemical
CONDITION SET: substrate N-Benzoyl-Phe-Val-Arg-p-nitroanilide
Where a name gives a salt, the structure may show the parent alone.

COMPOUND	TARGET UNDER TEST	Kass Trypsin
Nc1ccc(CCNC(=O)[C@@H]2CCCN2C(=O)[C@H](N)Cc2ccccc2)cc1 [Example 14, D-Phe-Pro-p-NHCH2 CH2 C6 H4 NH2.HCl]	Bovine trypsin (Bos taurus, UniProt P00760)	0.000056 × 10^6 (L/mole)
N=C(N)c1ccc(CNC(=O)[C@@H]2C[C@@H]3CCCC[C@@H]3N2C(=O)[C@@H](Cc2ccccc2)NCC(=O)O)cc1 (relative stereo)	Bovine trypsin (Bos taurus, UniProt P00760)	82 × 10^6 (L/mole)
NC[C@H]1CC[C@H](CNC(=O)[C@@H]2CCCN2C(=O)[C@H](N)Cc2ccccc2)CC1 (relative stereo)	Bovine trypsin (Bos taurus, UniProt P00760)	0.0022 × 10^6 (L/mole)
